system: 786-0; experiment: NCI tumour cell line growth inhibition, 48 h
Activity calls are given as the source filed them. No stated cut-off is given here; in the data, active = GI50 up to about 1.1 µM and inactive = higher.
REPORTED PROPERTY: GI50

With 786-0 as the test system, provide measured GI50 for this compound: "Cc1ccc(C(=O)NC(C)(C)C)cc1/N=N/N(C)C"
> 100 µM (inactive)

---

A collection of molecules and their measured GI50
tested on: CCRF-CEM; experiment: NCI tumour cell line growth inhibition, 48 h
Active and inactive are the calls of the source. Rule as the data show it: active = GI50 up to about 1.1 µM and inactive = higher.

> print(dat)
                                   molecule  tested.system                 val
1  C[n+]1c2ccccc2c(CNc2ccc(S(=O)(=O)N=C(N)N)cc2)c2ccccc21       CCRF-CEM  1.45 µM (inactive)

Assign GI50 to the following record: CCN(CC)CC(C(=O)Nc1c(C)cccc1C)/C(C)=N\NC(=S)NN (stereo unspecified)
> 100 µM (inactive)

Assign GI50 to the following record: "CCOC(=O)C(=O)Nc1nc2ccc(OC)cc2s1"
> 100 µM (inactive)

Assign GI50 to the following record: O=C1CSC2=NC3=C(CSC/C3=C\c3ccccc3)C(c3ccccc3)N12 (stereo unspecified)
33.8 µM (inactive)

Assign GI50 to the following record: COC1(c2cccs2)c2ccccc2C(OC)(c2cccs2)c2ccccc21 (stereo unspecified)
> 100 µM (inactive)

Assign GI50 to the following record: "CCc1cccc(CC)c1NC(=O)C(=O)Cc1nc2ccccc2o1"
> 100 µM (inactive)
